// PCB490-3 (human epithelioid sarcoma primary culture) IC50 cell viability records

Recorded results for 3 compounds are shown here.
{"columns": ["Compound", "Test Result"],
 "data": [
  ["Cn1cc(C2=C(c3cccc4ccccc34)C(=O)NC2=O)c2ccccc21", "> 100 µM"],
  ["Cn1cc(C2=C(c3cn(CCCCN)c4ccccc34)C(=O)NC2=O)c2ccccc21", "> 100 µM"],
  ["O=C1NC(=NCCc2cccc(Cl)c2)S/C1=C\\c1ccc2ncccc2c1", "> 100 µM"]
]}

State the recorded IC50 cell viability for every item in the following list.
1. CC(=O)N[C@@H](Cc1ccc(OP(=O)(O)O)cc1)C(=O)N[C@H]1CCC(=O)N2CCC[C@@H](C(=O)NCc3ccc(O)cc3)N2C1=O
2. O=C1NC(=N[C@@H](CO)c2ccccc2)S/C1=C\c1ccc2ncccc2c1
3. Cn1c(=O)c(Oc2ccc(F)cc2F)cc2cnc(NC3CCS(=O)(=O)CC3)nc21
4. Nc1c(C(=O)c2cccc(-c3cccnc3)c2)cnn1-c1ccc(F)cc1
5. Nc1c(C(=O)c2cccc(C#CCN3CCCCC3)c2)cnn1-c1ccc(F)cc1
6. COc1cccc(C2=C(c3cn(C)c4cccc(OC)c34)C(=O)NC2=O)c1
7. Cn1cc(C2=C(c3cn(C)c4ccc(Cl)cc34)C(=O)NC2=O)c2ccccc21
8. CC(=O)N[C@@H](Cc1ccc(OP(=O)(O)O)cc1)C(=O)N[C@H]1CCC(=O)N2CCC[C@@H](C(=O)NCc3ccc(Cl)cc3)N2C1=O

["> 100 µM", "> 100 µM", "> 100 µM", "> 100 µM", "> 100 µM", "> 100 µM", "> 100 µM", "> 100 µM"]

* * *

- System: PCB-490-5 (human epithelioid sarcoma primary culture)
Measured Parameter: IC50 cell viability (nM)
Give bare numbers, in nM.

Recorded results for 2 molecules are shown here.
{"columns": ["Molecule", "Unit Text", "IC50 cell viability"],
 "data": [
  ["Clc1ccc(NN=C(c2ccccc2)c2ccccn2)nc1 [JIB-04]", "nM", 1620],
  ["CN1CCC(CNc2ccc3ncc(-c4cccc(OC(F)(F)F)c4)n3n2)CC1 [SGI-1776]", "nM", 1850]
]}

State the recorded IC50 cell viability for every item in the following list.
1. Cn1c(=O)n(-c2ccc(C(C)(C)C#N)cc2)c2c3cc(-c4cnc5ccccc5c4)ccc3ncc21 [BEZ235]
2. CC(C)n1nc(-c2ccc3oc(N)nc3c2)c2c(N)ncnc21 [INK 128]
3. Cc1[nH]c2ccccc2c1CCNCc1ccc(/C=C/C(=O)NO)cc1 [Panobinostat]

[200, 100, 110]

* * *

Where a name gives a salt, the structure may show the parent alone.
// PCB-490-4 (human epithelioid sarcoma primary culture) IC50 cell viability records

Recorded results for 3 molecules are shown here.
{"columns": ["Molecule", "IC50 cell viability"],
 "data": [
  ["CCCc1c(OCCCOc2cc(O)c(-c3ccc(F)cc3)cc2CC)cccc1Oc1ccccc1C(=O)O", "> 10 µM"],
  ["CN1CCc2c(c3ccccc3n2Cc2ccc(C(=O)NO)cc2)C1", "> 10 µM"],
  ["CC(C)(C(=O)NCC(F)(F)C(F)(F)F)C(=O)N[C@@H]1C(=O)Nc2ccccc2-c2ccccc21", "> 10 µM"]
]}

State the recorded IC50 cell viability for every item in the following list.
1. C=CCn1c(=O)c2cnc(Nc3ccc(N4CCN(C)CC4)cc3)nc2n1-c1cccc(C(C)(C)O)n1
2. CN(C)C(=N)NC(=N)N [Metformin HCL]
3. Cc1ccc(Nc2nccc(N(C)c3ccc4c(C)n(C)nc4c3)n2)cc1S(N)(=O)=O
4. Cc1nc(Nc2ncc(C(=O)Nc3c(C)cccc3Cl)s2)cc(N2CCN(CCO)CC2)n1
5. Cc1nnc(C(C)C)n1C1C[C@H]2CC[C@@H](C1)N2CC[C@H](NC(=O)C1CCC(F)(F)CC1)c1ccccc1 (stereo in doubt)
6. CC(C)n1c(/C=C/C(O)CC(O)CC(=O)O)c(-c2ccc(F)cc2)c2ccccc21 (stereo unspecified)
7. C[C@@H](Oc1cc(-c2cnn(C3CCNCC3)c2)cnc1N)c1c(Cl)ccc(F)c1Cl

1. > 10 µM
2. > 10 µM
3. > 10 µM
4. 0.17 µM
5. > 10 µM
6. 4.28 µM
7. 1.8 µM

State the recorded IC50 cell viability for every item in the following list.
1. O=C(O)CC[C@H](O)C(=O)O [L-a-Hydroxyglutaric acid]
2. COc1cc2nc(N3CCCN(C)CC3)nc(NC3CCN(Cc4ccccc4)CC3)c2cc1OC
3. CC(=O)c1c(C)c2cnc(Nc3ccc(N4CCNCC4)cn3)nc2n(C2CCCC2)c1=O
4. CN1CCC(CNc2ccc3ncc(-c4cccc(OC(F)(F)F)c4)n3n2)CC1
5. C[C@]1(O)C[C@@H](c2nc(-c3ccc4ccc(-c5ccccc5)nc4c3)c3c(N)nccn32)C1
6. CO[C@H]1C[C@@H]2CC[C@@H](C)[C@@](O)(O2)C(=O)C(=O)N2CCCC[C@H]2C(=O)O[C@H]([C@H](C)C[C@@H]2CC[C@@H](O)[C@H](OC)C2)CC(=O)[C@H](C)/C=C(\C)[C@@H](O)[C@@H](OC)C(=O)[C@H](C)C[C@H](C)/C=C/C=C/C=C/1C

1. > 10 µM
2. 1.82 µM
3. > 10 µM
4. 2.03 µM
5. > 10 µM
6. > 10 µM

* * *

Structures can show the parent of a compound that is named as a salt.
// FU-EPS-1 IC50 cell viability records

{"columns": ["Compound", "Assay Target", "IC50 cell viability"],
 "data": [
  ["Cc1nnc(C(C)C)n1C1C[C@H]2CC[C@@H](C1)N2CC[C@H](NC(=O)C1CCC(F)(F)CC1)c1ccccc1 (stereo in doubt)", "FU-EPS-1", "> 10 µM"],
  ["CC(=O)c1c(C)c2cnc(Nc3ccc(N4CCNCC4)cn3)nc2n(C2CCCC2)c1=O", "FU-EPS-1", "> 10 µM"],
  ["CCCc1c(OCCCOc2cc(O)c(-c3ccc(F)cc3)cc2CC)cccc1Oc1ccccc1C(=O)O", "FU-EPS-1", "> 10 µM"]
]}

State the recorded IC50 cell viability for every item in the following list.
1. CN(C)C(=N)NC(=N)N [Metformin HCL]
2. Cc1[nH]c2ccccc2c1CCNCc1ccc(/C=C/C(=O)NO)cc1
3. CN1CCc2c(c3ccccc3n2Cc2ccc(C(=O)NO)cc2)C1
4. CC(C)(C(=O)NCC(F)(F)C(F)(F)F)C(=O)N[C@@H]1C(=O)Nc2ccccc2-c2ccccc21
5. CCOc1cc(C(C)(C)C)ccc1C1=N[C@@](C)(c2ccc(Cl)cc2)[C@@](C)(c2ccc(Cl)cc2)N1C(=O)N1CCN(CCCS(C)(=O)=O)CC1
6. CC[C@@H]1C(=O)N(C)c2cnc(Nc3ccc(C(=O)N[C@H]4CC[C@H](N5CCN(CC6CC6)CC5)CC4)cc3OC)nc2N1C(C)C

["> 10 µM", "0.15 µM", "> 10 µM", "> 10 µM", "> 10 µM", "0.35 µM"]

State the recorded IC50 cell viability for every item in the following list.
1. Nc1ccccc1NC(=O)c1ccc(CNC(=O)OCc2cccnc2)cc1
2. CC(C)(C)Cn1c(N)nc2ccc(-c3[nH]c(C(C)(C)C)nc3-c3ccc(F)cc3)nc21
3. Cc1ccc(Nc2nccc(N(C)c3ccc4c(C)n(C)nc4c3)n2)cc1S(N)(=O)=O
4. O=c1ncccn1[C@@H]1O[C@H](CO)[C@@H](O)[C@H]1O
5. CC1(C)CCC(c2ccc(Cl)cc2)=C(CN2CCN(c3ccc(C(=O)NS(=O)(=O)c4ccc(N[C@H](CCN5CCOCC5)CSc5ccccc5)c(S(=O)(=O)C(F)(F)F)c4)cc3)CC2)C1
6. O=C1NC(=O)C(c2cnc3ccccn23)=C1c1cn2c3c(cc(F)cc13)CN(C(=O)N1CCCCC1)CC2
7. CS(=O)(=O)c1cccc(CNc2nc(Nc3ccc4c(c3)CCC(=O)N4)ncc2C(F)(F)F)c1

2.69 µM
> 10 µM
> 10 µM
> 10 µM
> 10 µM
> 10 µM
> 10 µM

* * *

- Test system: ESX
Structures can show the parent of a compound that is named as a salt.
Provide the recorded IC50 cell viability for the entries that follow.
Give bare numbers, in µM.

{"columns": ["Compound", "Assay Target", "Unit Text", "IC50 cell viability"],
 "data": [
  ["Nc1nc(Nc2ccc(S(N)(=O)=O)cc2)nn1C(=S)Nc1c(F)cccc1F", "ESX", "µM", 0.2],
  ["Cn1c(=O)n(-c2ccc(C(C)(C)C#N)cc2)c2c3cc(-c4cnc5ccccc5c4)ccc3ncc21", "ESX", "µM", 0.02],
  ["CNC(=O)CN1CCC(Oc2cc3c(Nc4cccc(Cl)c4F)ncnc3cc2OC)CC1", "ESX", "µM", 4.75],
  ["COc1cc2nc(N3CCCN(C)CC3)nc(NC3CCN(Cc4ccccc4)CC3)c2cc1OC", "ESX", "µM", 0.2],
  ["CC[C@@H]1C(=O)N(C)c2cnc(Nc3ccc(C(=O)N[C@H]4CC[C@H](N5CCN(CC6CC6)CC5)CC4)cc3OC)nc2N1C(C)C", "ESX", "µM", 6.23],
  ["C[C@]1(O)C[C@@H](c2nc(-c3ccc4ccc(-c5ccccc5)nc4c3)c3c(N)nccn32)C1", "ESX", "µM", 0.02]
]}

State the recorded IC50 cell viability for every item in the following list.
1. O=C1NC(=O)C(c2cnc3ccccn23)=C1c1cn2c3c(cc(F)cc13)CN(C(=O)N1CCCCC1)CC2
2. Cc1[nH]c2ccccc2c1CCNCc1ccc(/C=C/C(=O)NO)cc1
3. CCOC(=O)CCNc1cc(N2CCc3ccccc3CC2)nc(-c2ccccn2)n1 [GSK-J4 HCl]
4. C[C@@H](Oc1ccc2[nH]nc(/C=C/c3cnn(CCO)c3)c2c1)c1c(Cl)cncc1Cl
5. CC(C)N(CCCNC(=O)Nc1ccc(C(C)(C)C)cc1)C[C@H]1O[C@@H](n2cc(Br)c3c(N)ncnc32)[C@H](O)[C@@H]1O
6. CC(C)n1nc(-c2ccc3oc(N)nc3c2)c2c(N)ncnc21

1. 1.52
2. 0.12
3. 1.58
4. 4.52
5. 0.62
6. 0.01

State the recorded IC50 cell viability for every item in the following list.
1. C=CCn1c(=O)c2cnc(Nc3ccc(N4CCN(C)CC4)cc3)nc2n1-c1cccc(C(C)(C)O)n1
2. CN1CCC(CNc2ccc3ncc(-c4cccc(OC(F)(F)F)c4)n3n2)CC1

1. 0.17
2. 0.15
